molecular target: ADAMTS4 (Homo sapiens (Human)); experiment: Selectivity assay for ADAMTS-7 modulators: ADAMTS4 (FRET substrate); assay type: biochemical; conditions: ADAMTS4 (R&D 4307-AD) 50 nM, substrate Dabcyl-EEVKAKVQPY-Glu(Edans)-NH2 1 μM, 120 min, 32° C.
Each record is given Satisfied if its reported IC50 is strictly below 9 µM. Records at or above 9 µM are given Not satisfied.

• CCn1nccc1C1(CNC(=O)c2ccccc2-c2ccc(C(F)(F)F)cc2)NC(=O)NC1=O (stereo not shown) [Example 80] = Satisfied
• Cn1nccc1C1(CNC(=O)c2ccccc2-c2ccc(Cl)cc2F)NC(=O)NC1=O (single isomer, unassigned; ent-4) = Not satisfied
• O=C1NC(=O)[C@](CNC(=O)c2ccc(F)cc2-c2ccc(C3CC3(F)F)cc2)(C2CC2)N1 (stereo partly shown) = Not satisfied

Is the reported IC50 for Cn1nccc1C1(CNC(=O)c2ccc(F)cc2-c2ccc(C(F)(F)F)nc2)NC(=O)NC1=O (single isomer, unassigned; ent-4) strictly below 9 µM?
Not satisfied

Is the reported IC50 for `O=C1NC(=O)[C@](CNC(=O)c2cc(F)ccc2-c2ccc(Cl)c(Cl)c2)(C2CC2)N1` strictly below 9 µM?
Not satisfied

Is the reported IC50 for `O=C1NC(=O)[C@](CNC(=O)c2ccccc2-c2ccccc2)(C2CC2)N1` strictly below 9 µM?
Satisfied

Is the reported IC50 for Cc1conc1C1(CNC(=O)c2ccccc2-c2ccc(C(F)(F)F)cc2)NC(=O)NC1=O (racemic) [Example 44] strictly below 9 µM?
Not satisfied

====

molecular target: UniProt O75173; assay: Selectivity assay for ADAMTS-7 modulators: ADAMTS4 (FRET substrate); type: biochemical; conditions: ADAMTS4 (R&D 4307-AD) 50 nM, substrate Dabcyl-EEVKAKVQPY-Glu(Edans)-NH2 1 μM, 120 min, 32° C.
Reported pIC50 values are given for each entry in this list.
Keep it numeric: pIC50 is minus log10 of the concentration in mol/L.

* Cc1cn(C)nc1C1(CNC(=O)c2ccccc2-c2ccc(C(F)(F)F)cc2)NC(=O)NC1=O (stereo not shown) [Example 70] | 5.35
* O=C1NC(=O)C(CNC(=O)c2ccccc2-c2ccc(C(F)(F)F)cc2)(c2cnccn2)N1 (racemic) | 4.35
* Cn1nccc1C1(CNC(=O)c2cccc(Cl)c2-c2ccc(C(F)(F)F)cc2)NC(=O)NC1=O (single isomer, unassigned; ent-6) | 5.72
* O=C1NC(=O)[C@](CNC(=O)c2cc(F)c(F)cc2-c2ccc(C(F)(F)F)cc2)(C2CC2)N1 | 4.55
* O=C1NC(=O)[C@](CNC(=O)c2ccccc2-c2ccc(C(F)(F)F)cc2)(C2CC2)N1 | 4.99
* Cc1scnc1C1(CNC(=O)c2ccccc2-c2ccc(Cl)cc2)NC(=O)NC1=O (single isomer, unassigned; ent-4) [Example 172] | 5.51

Now, please, on to the next compound.
Kindly indicate its recorded pIC50. Item: `O=C1NC(=O)[C@](CNC(=O)c2cccc(F)c2-c2ccc(C(F)(F)F)cc2)(C2CC2)N1`
5.11

====

Target: ADAMTS4 (Homo sapiens (Human), UniProt O75173)
Sequence (O75173 213-685): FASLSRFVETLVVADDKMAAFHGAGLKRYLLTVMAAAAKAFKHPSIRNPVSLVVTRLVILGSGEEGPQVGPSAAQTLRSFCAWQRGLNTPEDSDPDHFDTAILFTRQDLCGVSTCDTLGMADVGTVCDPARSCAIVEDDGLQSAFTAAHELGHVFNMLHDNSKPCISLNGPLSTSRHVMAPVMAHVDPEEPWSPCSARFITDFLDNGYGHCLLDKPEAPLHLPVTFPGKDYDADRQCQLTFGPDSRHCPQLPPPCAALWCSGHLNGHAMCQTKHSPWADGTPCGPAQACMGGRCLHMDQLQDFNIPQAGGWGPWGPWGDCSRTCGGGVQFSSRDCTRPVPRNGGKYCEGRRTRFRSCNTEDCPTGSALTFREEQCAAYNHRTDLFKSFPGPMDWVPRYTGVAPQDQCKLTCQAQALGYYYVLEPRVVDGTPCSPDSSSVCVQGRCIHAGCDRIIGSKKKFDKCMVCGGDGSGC
Experiment: Selectivity assay for ADAMTS-7 modulators: ADAMTS4 (FRET substrate)
Format: biochemical
Conditions: ADAMTS4 (R&D 4307-AD) 50 nM, substrate Dabcyl-EEVKAKVQPY-Glu(Edans)-NH2 1 μM, 120 min, 32° C.
Procedure: 1 μl test compound solution (dissolved in DMSO, at the corresponding concentration) or pure DMSO as a control was added per well. […] The increase of fluorescence intensity was measured in appropriate fluorescence plate reader (e.g. TECAN Ultra) using the respective wavelengths for excitation and emission. IC50 values were calculated from percentage of inhibition of enzyme activity as a function of test compound concentration.
Reported IC50 values are given for each entry in this list.
Provide only the numeric value, understood in µM.

Here's what some known entries look like.
- Cn1ccnc1C1(CNC(=O)c2cc(F)c(F)cc2-c2ccc(C3CC3(F)F)cc2)NC(=O)NC1=O (stereo not shown) [Example 143]: 4.6
- O=C1NC(=O)C(CNC(=O)c2ccc(F)cc2-c2ccc(C(F)(F)F)cc2)(C2(F)CC2)N1 (single isomer, unassigned; ent-5) [Example 253]: 11

Now, please, on to the next compound.
Kindly indicate its recorded IC50. Item: Cn1nccc1C1(CNC(=O)c2ccc(F)cc2-c2ccc(Cl)cc2)NC(=O)NC1=O (single isomer, unassigned; ent-4) [Example 180]
17.8

====

target: ADAMTS4 (Homo sapiens (Human), UniProt O75173); test: Selectivity assay for ADAMTS-7 modulators: ADAMTS4 (FRET substrate); type: biochemical; conditions: ADAMTS4 (R&D 4307-AD) 50 nM, substrate Dabcyl-EEVKAKVQPY-Glu(Edans)-NH2 1 μM, 120 min, 32° C.
property label: pIC50
Keep it numeric: pIC50 is minus log10 of the concentration in mol/L.

Here's what some known entries look like.
- Cc1ccc(-c2cccc(F)c2C(=O)NC[C@@]2(C3CC3)NC(=O)NC2=O)cc1: 4.70
- O=C1NC(=O)C(CNC(=O)c2cc(F)ccc2-c2ccc(C(F)(F)F)cc2)(c2ncsc2C(F)(F)F)N1 (stereo not drawn) [Example 266]: 5.00
- O=C1NC(=O)C(CNC(=O)c2ccccc2-c2ccc(C(F)(F)F)cc2)(C2(Cl)CC2)N1 (stereo not drawn) [Example 280]: 5.15

Kindly indicate its recorded pIC50. Item: Cc1ccc(-c2cc(Cl)ccc2C(=O)NCC2(c3nccn3C)NC(=O)NC2=O)cc1 (single isomer, unassigned; ent-5)
6.29

Kindly indicate its recorded pIC50. Item: `CC(C)c1ccc(-c2ccccc2C(=O)NC[C@@]2(C3CC3)NC(=O)NC2=O)cc1`
5.12

Kindly indicate its recorded pIC50. Item: O=C1NC(=O)C(CNC(=O)c2ccccc2-c2ccc(C(F)(F)F)cc2)(c2ncsc2C(F)(F)F)N1 (racemic) [Example 263]
4.49

Kindly indicate its recorded pIC50. Item: Cc1cnsc1C1(CNC(=O)c2ccccc2-c2ccc(C(F)(F)F)cc2)NC(=O)NC1=O (racemic)
5.14

Kindly indicate its recorded pIC50. Item: `Cc1ccc(-c2ccccc2C(=O)NC[C@@]2(C3CC3)NC(=O)NC2=O)cn1`
4.70

Kindly indicate its recorded pIC50. Item: `COc1ccc(C(=O)NC[C@@]2(C3CC3)NC(=O)NC2=O)c(-c2ccc(C(F)(F)F)cc2)c1`
5.21

Kindly indicate its recorded pIC50. Item: `O=C1NC(=O)[C@](CNC(=O)c2ccccc2-c2ccc(OC(F)F)cc2)(C2CC2)N1`
4.89

Kindly indicate its recorded pIC50. Item: `CC(C)(C#N)c1ccc(-c2ccccc2C(=O)NC[C@@]2(C3CC3)NC(=O)NC2=O)cc1`
4.72

Kindly indicate its recorded pIC50. Item: O=C1NC(=O)C(CNC(=O)c2ccccc2-c2ccc(C(F)(F)F)nc2)(c2ccnn2C2CC2)N1 (stereo not drawn) [Example 66]
5.09

====

target: ADAMTS4 (Homo sapiens (Human)); assay: Selectivity assay for ADAMTS-7 modulators: ADAMTS4 (FRET substrate); type: biochemical; details: ADAMTS4 (R&D 4307-AD) 50 nM, substrate Dabcyl-EEVKAKVQPY-Glu(Edans)-NH2 1 μM, 120 min, 32° C.
property label: IC50 (µM)
Provide only the numeric value, understood in µM.

* Cn1ccnc1C1(CNC(=O)c2ccc(Cl)cc2-c2ccc(C(F)(F)F)cc2)NC(=O)NC1=O (single isomer, unassigned; ent-5) [Example 161] | 0.728
* Cc1scnc1C1(CNC(=O)c2ccc(F)cc2-c2ccc(Cl)cc2)NC(=O)NC1=O (racemic) [Example 169] | 8.5
* Cn1ccnc1C1(CNC(=O)c2ccc(F)cc2-c2ccc(C3CC3(F)F)cc2)NC(=O)NC1=O (stereo not shown) [Example 141] | 3.6

Now, please, on to the next molecule.
Kindly indicate its recorded IC50. Item: Cc1c(C2(CNC(=O)c3ccc(Cl)cc3-c3ccc(C(F)(F)F)cc3)NC(=O)NC2=O)cnn1C (racemic) [Example 33]
5.2

====

target: ADAMTS4 (Homo sapiens (Human)); experiment: Selectivity assay for ADAMTS-7 modulators: ADAMTS4 (FRET substrate); format: biochemical; details: ADAMTS4 (R&D 4307-AD) 50 nM, substrate Dabcyl-EEVKAKVQPY-Glu(Edans)-NH2 1 μM, 120 min, 32° C.
Each record is given YES if its reported IC50 is strictly below 10 µM. Records at or above 10 µM are given NO.

* Cc1ccc(-c2ccccc2C(=O)NCC2(C(C)C)NC(=O)NC2=O)cc1 (stereo not shown) [Example 205] | NO
* O=C1NC(=O)C(CNC(=O)c2ccc(F)cc2-c2ccc(C(F)(F)F)cc2)(c2ncsc2C(F)(F)F)N1 (racemic) [Example 267] | NO

Is the reported IC50 for Cc1nsnc1C1(CNC(=O)c2ccccc2-c2ccc(C(F)(F)F)cc2)NC(=O)NC1=O (stereo not shown) [Example 85] strictly below 10 µM?
NO

Is the reported IC50 for Cc1nonc1C1(CNC(=O)c2ccccc2-c2ccc(C(F)(F)F)cc2)NC(=O)NC1=O (stereo not shown) [Example 73] strictly below 10 µM?
NO

Is the reported IC50 for Cn1nccc1C1(CNC(=O)c2ccccc2-c2ccc(Cl)c(Cl)c2)NC(=O)NC1=O (single isomer, unassigned; ent-3) strictly below 10 µM?
NO

Is the reported IC50 for O=C1NC(=O)C(CNC(=O)c2ccccc2-c2ccc(Cl)cc2)(c2ccnn2C(F)F)N1 (single isomer, unassigned; ent-4) [Example 259] strictly below 10 µM?
YES

Is the reported IC50 for Cc1scnc1C1(CNC(=O)c2cc(F)ccc2-c2ccc(C(F)(F)F)cc2)NC(=O)NC1=O (racemic) [Example 165] strictly below 10 µM?
YES

Values were extracted from patent US12398120B2.
